Just for reference, BigSolDB 2.1 is where these values come from.

settings: in span 80, 308.2 K
Measure: solubility (mole fraction)
// print number alone

// solubility (mole fraction) lookup, molecule = CO[C@H]1/C=C/O[C@@]2(C)Oc3c(C)c(O)c4c(O)c(c(/C=N/N5CCN(C)CC5)c(O)c4c3C2=O)NC(=O)/C(C)=C\C=C\[C@H](C)[C@H](O)[C@@H](C)[C@@H](O)[C@@H](C)[C@H](OC(C)=O)[C@@H]1C , result: 0.00079

----------
conditions: in triacetin, 318.2 K
Measure: solubility (mole fraction)
// print number alone

// solubility (mole fraction) lookup, compound = CO[C@H]1/C=C/O[C@@]2(C)Oc3c(C)c(O)c4c(O)c(c(/C=N/N5CCN(C)CC5)c(O)c4c3C2=O)NC(=O)/C(C)=C\C=C\[C@H](C)[C@H](O)[C@@H](C)[C@@H](O)[C@@H](C)[C@H](OC(C)=O)[C@@H]1C , result: 0.00088

----------
conditions: in isopropanol, 298.2 K
Measure: solubility (mole fraction)

// solubility (mole fraction) lookup, molecule = CO[C@H]1/C=C/O[C@@]2(C)Oc3c(C)c(O)c4c(O)c(c(/C=N/N5CCN(C)CC5)c(O)c4c3C2=O)NC(=O)/C(C)=C\C=C\[C@H](C)[C@H](O)[C@@H](C)[C@@H](O)[C@@H](C)[C@H](OC(C)=O)[C@@H]1C , result: 0.00073

----------
conditions: in isopropyl myristate, 303.2 K
Measure: solubility (mole fraction)
// print number alone

// solubility (mole fraction) lookup, molecule = CO[C@H]1/C=C/O[C@@]2(C)Oc3c(C)c(O)c4c(O)c(c(/C=N/N5CCN(C)CC5)c(O)c4c3C2=O)NC(=O)/C(C)=C\C=C\[C@H](C)[C@H](O)[C@@H](C)[C@@H](O)[C@@H](C)[C@H](OC(C)=O)[C@@H]1C , result: 0.0038

----------
conditions: in ethyl acetate, 313.2 K
Measure: solubility (mole fraction)
// print number alone

// solubility (mole fraction) lookup, compound = CO[C@H]1/C=C/O[C@@]2(C)Oc3c(C)c(O)c4c(O)c(c(/C=N/N5CCN(C)CC5)c(O)c4c3C2=O)NC(=O)/C(C)=C\C=C\[C@H](C)[C@H](O)[C@@H](C)[C@@H](O)[C@@H](C)[C@H](OC(C)=O)[C@@H]1C , result: 0.0091

----------
settings: in limonene, 308.2 K
Measure: solubility (mole fraction)
// print number alone

// solubility (mole fraction) lookup, molecule = CO[C@H]1/C=C/O[C@@]2(C)Oc3c(C)c(O)c4c(O)c(c(/C=N/N5CCN(C)CC5)c(O)c4c3C2=O)NC(=O)/C(C)=C\C=C\[C@H](C)[C@H](O)[C@@H](C)[C@@H](O)[C@@H](C)[C@H](OC(C)=O)[C@@H]1C , result: 0.0052

----------
details: in ethyl acetate, 308.2 K
Measure: solubility (mole fraction)
// print number alone

// solubility (mole fraction) lookup, compound = CO[C@H]1/C=C/O[C@@]2(C)Oc3c(C)c(O)c4c(O)c(c(/C=N/N5CCN(C)CC5)c(O)c4c3C2=O)NC(=O)/C(C)=C\C=C\[C@H](C)[C@H](O)[C@@H](C)[C@@H](O)[C@@H](C)[C@H](OC(C)=O)[C@@H]1C , result: 0.00088

----------
details: in isopropanol, 303.2 K
Measure: solubility (mole fraction)
// print number alone

// solubility (mole fraction) lookup, compound = CO[C@H]1/C=C/O[C@@]2(C)Oc3c(C)c(O)c4c(O)c(c(/C=N/N5CCN(C)CC5)c(O)c4c3C2=O)NC(=O)/C(C)=C\C=C\[C@H](C)[C@H](O)[C@@H](C)[C@@H](O)[C@@H](C)[C@H](OC(C)=O)[C@@H]1C , result: 0.00089

----------
conditions: in limonene, 303.2 K
Measure: solubility (mole fraction)
// print number alone

// solubility (mole fraction) lookup, compound = CO[C@H]1/C=C/O[C@@]2(C)Oc3c(C)c(O)c4c(O)c(c(/C=N/N5CCN(C)CC5)c(O)c4c3C2=O)NC(=O)/C(C)=C\C=C\[C@H](C)[C@H](O)[C@@H](C)[C@@H](O)[C@@H](C)[C@H](OC(C)=O)[C@@H]1C , result: 0.0036

----------
settings: in transcutol, 298.2 K
Measure: solubility (mole fraction)
// print number alone

// solubility (mole fraction) lookup, compound = CO[C@H]1/C=C/O[C@@]2(C)Oc3c(C)c(O)c4c(O)c(c(/C=N/N5CCN(C)CC5)c(O)c4c3C2=O)NC(=O)/C(C)=C\C=C\[C@H](C)[C@H](O)[C@@H](C)[C@@H](O)[C@@H](C)[C@H](OC(C)=O)[C@@H]1C , result: 0.00097

----------
conditions: in transcutol, 303.2 K
Measure: solubility (mole fraction)
// print number alone

// solubility (mole fraction) lookup, molecule = CO[C@H]1/C=C/O[C@@]2(C)Oc3c(C)c(O)c4c(O)c(c(/C=N/N5CCN(C)CC5)c(O)c4c3C2=O)NC(=O)/C(C)=C\C=C\[C@H](C)[C@H](O)[C@@H](C)[C@@H](O)[C@@H](C)[C@H](OC(C)=O)[C@@H]1C , result: 0.0013

----------
details: in sec-butanol, 313.2 K
Measure: solubility (mole fraction)
// print number alone

// solubility (mole fraction) lookup, compound = CO[C@H]1/C=C/O[C@@]2(C)Oc3c(C)c(O)c4c(O)c(c(/C=N/N5CCN(C)CC5)c(O)c4c3C2=O)NC(=O)/C(C)=C\C=C\[C@H](C)[C@H](O)[C@@H](C)[C@@H](O)[C@@H](C)[C@H](OC(C)=O)[C@@H]1C , result: 0.00076
